The origin of these recorded values is ChEMBL document CHEMBL1201862.

Tested on: SNB-19
PROCEDURE_SUMMARY: NCI tumour cell line growth inhibition, 48 h
Active and inactive are the calls of the source. Cut-off read from the data, not from the text of the source: active = GI50 up to about 1.1 µM and inactive = higher.
Bench note: report the call from Y (active), N (inactive)

See these solved cases before continuing.
{"COMPOUND": "COc1ccc(OC)c2c1C(=O)C(Cl)=C(N1CCN(CCOCCO)CC1)C2=O", "CLASS_ASSIGNMENT": "N"}
{"COMPOUND": "N#Cc1nc(Sc2cnsn2)c(Sc2cnsn2)nc1C#N", "CLASS_ASSIGNMENT": "N"}
{"COMPOUND": "COc1cc(CC2c3cc(OC)c(OC)cc3CCN2C)c(Oc2cc3c(cc2OC)-c2c(O)c(OC)cc4c2C(C3)N(C)CC4)cc1OC (configuration not stated)", "CLASS_ASSIGNMENT": "N"}
{"COMPOUND": "CC(=O)/C=C\\C1CC2C=CC1C2 (configuration not stated)", "CLASS_ASSIGNMENT": "N"}
{"COMPOUND": "COc1ccc(OC)c(CC2CCc3nc(N)nc(N)c3C2)c1 (configuration not stated)", "CLASS_ASSIGNMENT": "N"}
{"COMPOUND": "COC(=O)C1C(C(=O)OC)C1(Br)CBr (configuration not stated)", "CLASS_ASSIGNMENT": "N"}
{"COMPOUND": "S=C1c2ccccc2N=C(NC2CCCC2)C2CSCN12 (configuration not stated)", "CLASS_ASSIGNMENT": "N"}
{"COMPOUND": "COc1cccc(C2c3cc4c(cc3OC(Nc3ccccc3)C2C)OCO4)c1O (configuration not stated)", "CLASS_ASSIGNMENT": "N"}

Task: Assay result, entry O=C(O)CS(=O)(=O)C(c1ccccc1)c1ccccc1 — outcome?
Output: N

Task: Which result was noted for this compound in the test: CCOC(=O)/C=C/CCC(C)(C)COC(C)=O
Output: N

Task: Recorded call for O=C1Nc2ccccc2/C1=C\c1c(Cl)nc2n1CCS2 ?
Output: N

Task: // return assay outcome for CN(C)c1ccc(/C=C2\N=C(NNc3ccccc3)NC2=O)cc1
Output: N

====

System: 786-0
PROCEDURE_SUMMARY: NCI tumour cell line growth inhibition, 48 h
The source made the active and inactive calls. Cut-off read from the data, not from the text of the source: active = GI50 up to about 1.1 µM and inactive = higher.
// values below are reported GI50

Examples with answers:
{"COMPOUND": "Nc1c(C(=O)NC23CC4CC(CC(C4)C2)C3)[n+]([O-])c2ccccc2[n+]1[O-]", "TARGET_OR_SYSTEM": "786-0", "REPORTED_MEASUREMENT": "> 100 µM (inactive)"}
{"COMPOUND": "c1ccc(-c2nnc3nn4c(-c5ccccc5)cnnc4c3c2-c2ccccc2)cc1", "TARGET_OR_SYSTEM": "786-0", "REPORTED_MEASUREMENT": "0.0794 µM (active)"}

Task: Using known records, supply GI50 for C=CCOC1(CC=C)C(=O)OC2C(O)COC21O (stereo not given)
Output: > 100 µM (inactive)

Task: Tell us which GI50 value is on record for CC1(C)N=C(N)N=C(N)N1CCCCc1ccccc1
Output: < 0.0305 µM (active)

Task: Supply measured GI50 of COC(=O)C1SC(SC)=NC12c1ccccc1Nc1ccccc12 (stereo not given) in your reply.
Output: 35.2 µM (inactive)

Task: Name the recorded GI50 of the item CSc1nnc(SCc2nn3c(=O)cc(C)nc3s2)s1 in your answer.
Output: > 100 µM (inactive)

Task: Consider the compound Cc1ccc(OCC2OC(n3cnc4c(Cl)nc(Nc5cc(Cl)cc(Cl)c5)nc43)CC2Oc2ccc(C)cc2)cc1 (stereo not given) . State its measured GI50.
Output: > 100 µM (inactive)

Task: Indicate its recorded GI50; the compound in question is Oc1c(Cl)c(Cl)c(O)c(CCNc2nccs2)c1Cl
Output: 16.9 µM (inactive)

Task: Quote GI50 reported for C=CC[C@H]1[C@H](O[Si](C)(C)C(C)(C)C)C=CC(=O)[C@@H]1CC(=O)N(Cc1ccccc1)Cc1ccccc1 please.
Output: 17.5 µM (inactive)

Task: Identify the reported GI50 for the following entry. CC(C)CCCC(C)[C@H]1CC[C@H]2n3c(nnc3-c3ccccc3)CCC[C@]12C (stereo not given in full)
Output: 14.6 µM (inactive)

====

Test system: CCRF-CEM
PROCEDURE_SUMMARY: NCI tumour cell line growth inhibition, 48 h
The source made the active and inactive calls. No stated cut-off is given here; in the data, active = GI50 up to about 1.1 µM and inactive = higher.
MEASURED_ATTRIBUTE: GI50

In the examples that follow, each entry is paired with its recorded GI50.
{"COMPOUND": "O=C(O)CC(CC(=O)O)n1cccc1", "REPORTED_MEASUREMENT": "> 100 µM (inactive)"}
{"COMPOUND": "Cn1c2ncccc2n2c(=O)cc(O)cc12", "REPORTED_MEASUREMENT": "> 100 µM (inactive)"}
{"COMPOUND": "N#Cc1nc(Sc2cnsn2)c(Sc2cnsn2)nc1C#N", "REPORTED_MEASUREMENT": "0.426 µM (active)"}
{"COMPOUND": "COc1ccc(-c2cc(=O)c3c(O)cc(O)cc3o2)c(OC)c1OC", "REPORTED_MEASUREMENT": "50 µM (inactive)"}
{"COMPOUND": "O=C1NC(c2ccccc2)(c2ccccc2)C(=O)N1CCCCCCN1C(=O)NC(c2ccccc2)(c2ccccc2)C1=O", "REPORTED_MEASUREMENT": "> 100 µM (inactive)"}
{"COMPOUND": "Cc1ccc2[nH]c3c(c2c1)C1CCC(C(C)(C)C)CC1C1C(=O)N(c2ccc4c(c2)OCO4)C(=O)C31 (configuration not stated)", "REPORTED_MEASUREMENT": "1.82 µM (inactive)"}

As a next step, examine the compound that follows.
Task: Provide one value: measured GI50 of OCCCc1ccc2c(c1)[C@H](CO)[C@@H](c1ccc(O)cc1)O2
Output: 76 µM (inactive)

====

System: MCF7
PROCEDURE_SUMMARY: NCI tumour cell line growth inhibition, 48 h
Calls of active or inactive are those of the source. Rule as the data show it: active = GI50 up to about 1.1 µM and inactive = higher.
Overview of reported GI50 across a group of molecules:

Task: Fetch value of GI50 on MCF7 for Cn1c(=O)c2nc(/N=N/Nc3nncs3)[nH]c2n(C)c1=O .
Output: > 100 µM (inactive)

Task: Please indicate recorded GI50 of CC1(C)N=C(N)N=C(N)N1CCCCc1ccccc1 measured with MCF7.
Output: 0.838 µM (active)

Task: State GI50 (MCF7) of Cc1cc2nc3c(C#N)c(C)c(CCCl)c(Cl)n3c2cc1C .
Output: 2.9 µM (inactive)

Task: System MCF7. Read-out GI50. Item COC1=CC2C(c3cc4ccccc4n3S(=O)(=O)c3ccccc3)CC1CN2C(=O)OCc1ccccc1 (stereo not drawn) . Report value.
Output: 39.9 µM (inactive)

Task: Give measured GI50 for CCC(C)SC1SCC2C(=O)N(C)C3(CC3C)C(=O)OCC(NC(=O)c3nc4ccccc4cc3O)C(=O)NC(C)C(=O)N(C)C1C(=O)N(C)C1(CC1C)C(=O)OCC(NC(=O)c1nc3ccccc3cc1O)C(=O)NC(C)C(=O)N2C (stereo not drawn) (MCF7).
Output: 1.2e-05 µM (active)

Task: System MCF7. Read-out GI50. Item Cc1cc2c(cc1-c1cc3c(cc1C)C(C(C)C)=C(O)C(=O)/C3=C\Nc1cccc3c(N)cccc13)/C(=C/Nc1cccc3c(N)cccc13)C(=O)C(O)=C2C(C)C . Report value.
Output: > 100 µM (inactive)

Task: # return GI50 for Cc1cc(C)c(S(=O)(=O)N[C@@H](/C=C(\Br)CO)C(C)C)c(C)c1 , test system: MCF7
Output: 19.6 µM (inactive)

Task: Report value: GI50, system: MCF7, molecule: CCOC(=O)c1sc2c(c1OC(=O)c1ccco1)c(=O)n(-c1ccccc1)c(=S)n2-c1ccccc1
Output: 41.3 µM (inactive)

====

Tested on: SK-MEL-2
PROCEDURE_SUMMARY: NCI tumour cell line growth inhibition, 48 h
Active and inactive are the calls of the source. No stated cut-off is given here; in the data, active = GI50 up to about 1.1 µM and inactive = higher.
MEASURED_ATTRIBUTE: GI50

Sample records with GI50:
{"MOLECULE": "CCc1nc2ccccc2c(=O)n1/N=C(\\N=N\\c1ccc(Cl)cc1)c1ccccc1", "TARGET_OR_SYSTEM": "SK-MEL-2", "REPORTED_MEASUREMENT": "32.7 µM (inactive)"}
{"MOLECULE": "N#CSC#CCCC#CSC#N", "TARGET_OR_SYSTEM": "SK-MEL-2", "REPORTED_MEASUREMENT": "20.3 µM (inactive)"}
{"MOLECULE": "Cc1ccc(S(=O)(=O)NC(=O)C2(Br)S(=O)(=O)OCCOS2(=O)=O)cc1", "TARGET_OR_SYSTEM": "SK-MEL-2", "REPORTED_MEASUREMENT": "> 100 µM (inactive)"}
{"MOLECULE": "COc1ccc(/C=C2\\C[C@H]3[C@@H]4CCC5=C[C@@H](N6CCCC6)CC[C@]5(C)[C@H]4CC[C@]3(C)[C@H]2O)cc1", "TARGET_OR_SYSTEM": "SK-MEL-2", "REPORTED_MEASUREMENT": "1.88 µM (inactive)"}

Task: Look up and report measured GI50 (SK-MEL-2) for the following molecule: CC(C(=O)O)C1Nc2ccccc2NC1=O (stereo not given)
Output: > 100 µM (inactive)
